Parameter polymerase ribozyme fitness (log ratio): see the listing below.
B1: TPR 5TU (parent)
chain: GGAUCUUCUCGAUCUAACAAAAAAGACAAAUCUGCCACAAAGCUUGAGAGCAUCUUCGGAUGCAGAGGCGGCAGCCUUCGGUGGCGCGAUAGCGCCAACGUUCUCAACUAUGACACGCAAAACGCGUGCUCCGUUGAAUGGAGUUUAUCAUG

variants of: B1; assay: polymerase ribozyme fitness, log enrichment relative to wild type (log ratio); higher = more active; in vitro selection for triplet polymerase activity
This sample holds only a part of the variants without activity.

1. A60U G81U C85U G92U C93G C96A C103U G128A; ≤ -4.2
2. A40U G68C C96U C105A; ≤ -4.2
3. A40U A106G C131U; 1.54
4. A3C G34A C96G; -3.63
5. U15A A26C G34U C105G G143C; ≤ -4.2

Q. Check the records and state polymerase ribozyme fitness (log ratio) for U31G A40G U61A C87U G112U G141C
A. ≤ -4.2

Q. Check the records and state polymerase ribozyme fitness (log ratio) for "U151C"
A. -2.78

Q. Check the records and state polymerase ribozyme fitness (log ratio) for G11A A19U U56G U82C G84U C95U
A. ≤ -4.2

Q. Check the records and state polymerase ribozyme fitness (log ratio) for A39U C54U U55G C93U C103U
A. ≤ -4.2

Q. Check the records and state polymerase ribozyme fitness (log ratio) for U6C C95U A98U C99U
A. -2.4

Q. Check the records and state polymerase ribozyme fitness (log ratio) for U33A G92A
A. ≤ -4.2

Q. Check the records and state polymerase ribozyme fitness (log ratio) for A41G C85A U101G
A. -1.82

Q. Check the records and state polymerase ribozyme fitness (log ratio) for U15A A39G U53A A73U C85U G124U U134C U135C
A. ≤ -4.2

These measurements were taken from the RNAGym collection of RNA variant scans (doi:10.1073/pnas.2313332121).
